B1: glmS ribozyme (parent)
chain: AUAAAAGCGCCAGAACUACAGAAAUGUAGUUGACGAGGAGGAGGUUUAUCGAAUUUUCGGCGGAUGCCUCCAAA

# Variants of: B1
# ASSAY NAME: kcat; higher = faster cleavage; RNA array
# RECORDED CONDITIONS: with glucosamine-6-phosphate
This sample holds only a part of the variants without activity.
QUANTITY: kcat

> print(dat)
                              sequence.input  observed.result
 1  AUAAAAGCGCCGGAGCUACAGAAAUGUAGUUGACGAGGAGGAGGUUUAUCGAAUUUUCGGCGGAUGCCUACAAA [A12G A15G C70A]     0.000107 s⁻¹
 2  AUAAAAGCGCCAGAACUACAGAAAUGUAGUUAACGAGGAGGAGGUUUAUCGAAUUAUCGGCGGAUGCCUCCAAA [G32A U56A]     0.000939 s⁻¹
 3  AUAAAAGCGCCAGAACUACAGAAAUGUAGUUGACGAGGAGGAGGUCUAUCGAAUAUUCGGCGGAUGCCUCCAAA [U46C U55A]      0.00288 s⁻¹
 4  AUAAAAGCGCCAGAACUACAGAAAUGUAGUUGACGCGGAGGAGGUUUAUCGAAUUUUAGGCGGAUGCCUCCAAA [A36C C58A]     1.11e-05 s⁻¹
 5  AUAAAAGCGCCAGAACUACAGAAAUGUAGUUGACGAGGCGGAGGUUUAUCGAAUUUUCGGCGGAUGCCUCGAAA [A39C C71G]     1.47e-05 s⁻¹
 6  AUAAAAGCGCCAGAACUACAGAAAUGUAGUCGACGAGGAGGAGGUUUAUCGAAUUUUCGGCGGGUGCCUCCAAA [U31C A64G]      0.00541 s⁻¹
 7  AUAAAAGCGCCAUAACUACAGAAAUGUAGUUGACGAGGAGGAGGUUUAUCGAAUUUUCGGAGGAUGCCUCCAAA [G13U C61A]     1.33e-05 s⁻¹
 8  AUAAAAGCGCCAGAACUACAGAAAUGUAGUUAACGAGGAGGAGGUUUAUCGAAUUUACGGCGGAUGCCUCCAAA [G32A U57A]     3.77e-05 s⁻¹
 9  AUAAAAGCGCCAGAACUACAGAAAUGUAGUUGACGAGGAGGAGGUUUAUCGAAUUGUCGGAGGAUGCCUCCAAA [U56G C61A]      < 1e-05 s⁻¹
10  AUAAAAGCGCCAGUACUACAGAAAUGUAGUUGACGAGGAGGAGGUUUAUCGAAUCUUCGGCGGAUGCCUCCAAA [A14U U55C]      0.00666 s⁻¹
11  AUAAAAGCGCCAGAAUUACAGAAAUGUAGUUGACGAGGAGGAGGUUUAUCGGAUUUUCGGCGGAUGCCUCCAAA [C16U A52G]      0.00224 s⁻¹
12  AUAAAAGCGCCACAACUACAGAAAUGUAGUUGACGAGGAGGAGGUUUAUCGAAAUUUCGGCGGAUGCCUCCAAA [G13C U54A]     0.000202 s⁻¹
13  AUAAAAGCGCCAGAACUACAGACAUGUAGUUGACGAGGAGGAGGUUUAUCGAAUUUUCGGCGGAUGCCUACAAA [A23C C70A]     0.000172 s⁻¹
14  AUAAAAGCGCCAGAACUACAGAAAUGUAGUUGACGAGGCGGAGGUCUAUCGAAUUCUCGGCGGAUGCCUCCAAA [A39C U46C U56C]     0.000367 s⁻¹
15  AUAAAAGCGCCAGAACUACAGAAAUGUAGUUGACGAGGAGGAGGUUUAUCGAAUUCUCGGCGGAUGCCUCAAAA [U56C C71A]     4.36e-05 s⁻¹
16  AUAAAAGCGCCAGAACUACAGAAAUGUAGAUGACGAGGAGGAGGUUGAUCGAAUUUUCGGCGGAUGCCUCCAAA [U30A U47G]     0.000918 s⁻¹
17  AUAAAAGCGCCAGAACUACAGAAAUGUAGUGGAAGAGGAGGAGGUUUAUCGAAUUUUCGUCGGAUGACUCCAAA [U31G C34A G60U C67A]      < 1e-05 s⁻¹
18  AUAAAAGCGCCAGAACUACAGAAAUGUAGUUGACGAGGAGGAGCUUUAUCGAGUUUUCGGCGGAUGCCUCCAAA [G44C A53G]     0.000232 s⁻¹
19  AUAAAAGCGCCAGGACUACAGAAAUGUAGUUGCCGAGGAGGAGGUUUAUCGAAUUUUCGGCGGAUGCCUCCAAA [A14G A33C]     0.000125 s⁻¹
20  AUAAAAGGGCCAGAACUACAGAAAUGUAGUUGACGAGGAGGAGGUUUAUCGAAUUUCCGGCGGAUGCCUCCAAA [C8G U57C]      < 1e-05 s⁻¹
21  AUAAAAGCGCCAGAACUACAGAAAUGUAGUUGACGAGGAGGAGGUUUAUCGAAUUUUCGUCGGAUGACUCCAAA [G60U C67A]      < 1e-05 s⁻¹
22  AUAAAAGCGCCAGAACUACAGAAAUUUAGUUGACGAGGAUGAGGUUUAUCGAAUUUUCGGCGGAUGCCUCCAAA [G26U G40U]     0.000912 s⁻¹
23  AUAAAAGCGCCAGAACUACAGAAAUGUAGUUGACGAGGAGGAGGUUUAUCGAAUUUUCGGCGGAUGCCAACAAA [U69A C70A]      3.8e-05 s⁻¹
24  AUAAAAGCGCCAGAACUACAGAAAUGUAGUUGACGAGGAGGAGGUUUAUCGAAUUUGCGGCGGAUGCCUCCAAA [U57G]     0.000109 s⁻¹
25  AUAAAAGCGCCAGAACUACAGAAAUGUAGUUGACGAGGAGUAGGUUUAUCGAAUUAUCGGCGGAUGCCUCCAAA [G41U U56A]      0.00219 s⁻¹
26  AUAAAAGCGCCAGAAGUACAGAAAUGUAGUUGACGAGGAGGAGGUUUAUCGAAUUUUCGGCGGGUGCCUCCAAA [C16G A64G]      0.00475 s⁻¹
27  AUAAAAGCGCCAGAACUACAGAAAUGUAGUUGUCGAGGAGGAGGUUUAUCGAAUUUUCGGCGGAUGACUCCAAA [A33U C67A]     7.68e-05 s⁻¹
28  AUAAAAGCGCCAGAACUACAGAAAUGUAGUCGACGAGGAGGAGGUUUAUCGAGUUUUCGGCGGAUGCCUCCAAA [U31C A53G]      0.00573 s⁻¹
29  AUAAAAGCGCCAGAACUACAGAAAUGUAGUGGACGAGGAGGAGGUUUAUCGAAUGCUCGGCGGAUGCCUCCAAA [U31G U55G U56C]      0.00133 s⁻¹
30  AUAAAAGCGCCAGAUCUACAGAAAUGUAGUUGACGAGGAGGAGGUUUAUCCAAUUUUCGGCGGAUGCCUCCAAA [A15U G51C]      < 1e-05 s⁻¹
31  AUAAAAACGCCAGAACUACAGAAAUGUAGUUGACGAGGAGGAGGUUUAUCGAUUUUUCGGCGGAUGCCUCCAAA [G7A A53U]     2.79e-05 s⁻¹
32  AUAAAAGCGCCAUGACUACAGAAAUGUAGUUGACGAGGAGGAGGUUUAUCGAAUUUUCGGAGGAUGCCUCCAAA [G13U A14G C61A]      1.4e-05 s⁻¹
33  AUAAAAGCGCCAGAACUACAGAAAUGUAGUUGACGAGGAGGAGGUUUAUGGAAUUAUCGGCGGAUGCCUCCAAA [C50G U56A]        3e-05 s⁻¹
34  AUAAAAGCGCCAGAACUACAGAAAUGUAUUUGACGACGAGGAGGUUUAUCGAAUUUUCGGCGGAUGCCUCCAAA [G29U G37C]     1.83e-05 s⁻¹
35  AUAAAAGCGCCAGAACUACAGAAAUGUAGUUGACGAGGAGGAGGUUUAUCGAAUUUUUGGCGGAUGCCUUCAAA [C58U C70U]     0.000128 s⁻¹
36  AUAAAAGCGCCAGAACUACAGAAAUGUAGUUGUCGAGGCGGAGGUUUAUCGAAUUUUCGGCGGAUGCCUCCAAA [A33U A39C]     1.74e-05 s⁻¹
37  AUAAAAGCGCCAGAACUACAGAAAUGUAGUUGACGAGGAGGAGGUUUAUCUAAUUUUCGGCGGAUGUCUCCAAA [G51U C67U]      < 1e-05 s⁻¹
38  AUAAAAGCGCCAGAACUACAGAAAUGUAGUUGACGAGGAGGAGGUUCAUCGAAUUUUCGGCGGAUGCCUACAAA [U47C C70A]     0.000334 s⁻¹
39  AUAAAAGCGCCAGAACUACAGAAAUGUAGGUGACGAGGAGGAGGUUUAUCGAAUUUUCGGCGGAUGCCGCCAAA [U30G U69G]      3.4e-05 s⁻¹
40  AUAAAAGCGCCAGAACUACAGAAAUGUAGUUGACGAGGAGGAGGUGUAUCGAAUUUUCGGCGGAUGCCACCAAA [U46G U69A]     0.000212 s⁻¹
41  AUAAAAGCGCCAGACCUACAGAAAUGUAGUUGACGAGGAGGAGGUUUAUCGAAUUUUCGGCGGAUGCCUCUAAA [A15C C71U]      0.00455 s⁻¹
42  AUAAAAGCGCCAGAACUACAGAAAUGUAGUUGACGAGGAGGAGGUUUAUCGAAUUUUAGGCGGACGCCUCCAAA [C58A U65C]     6.66e-05 s⁻¹
